Data origin: patent US20120142623A1

# System: chloroquine-resistant strain K1 of P. falciparum
# Assay Explanation: P. falciparum growth inhibition in culture, strain K1
# Type: cell-based, Plasmodium falciparum
# Assay Conditions: Table 5; read-out: ED50 (μM) in K1
Endpoint Label: EC50

// query Please give the measured EC50 for this compound: O=C1c2ccc3c4ccc5c6c(ccc(c7ccc(c2c37)C(=O)N1CCN1CCCCC1)c64)C(=O)N(CCN1CCCCC1)C5=O
// result 10 to 40 µM

// query Please give the measured EC50 for this compound: CN1CCCC1CCn1cc(C2=C(c3c[nH]c4ccccc34)C(=O)NC2=O)c2ccccc21 (stereo not shown) [Bisindolylmaleimide II]
// result 1 to 10 µM

// query Please give the measured EC50 for this compound: Cc1c(C(=O)c2cccc3ccccc23)c2cccc3c2n1[C@H](CN1CCOCC1)CO3 [R-(+)-WIN55212-2]
// result 10 to 40 µM

// query Please give the measured EC50 for this compound: Cl.Cn1cc(C2=C(c3c4n(c5ccccc35)CCC(CN)C4)C(=O)NC2=O)c2ccccc21 (stereo not shown) [Bisindolylmaleimide X]
// result 1 to 10 µM

// query Please give the measured EC50 for this compound: CN([C@@H](Cc1ccc(OS(=O)(=O)c2cccc3cnccc23)cc1)C(=O)N1CCN(c2ccccc2)CC1)S(=O)(=O)c1cccc2cnccc12
// result < 1 µM

// query Please give the measured EC50 for this compound: O=C1Nc2ccc3ncsc3c2/C1=C/Nc1ccc(S(=O)(=O)Nc2ccccn2)cc1
// result 1 µM

// query Please give the measured EC50 for this compound: C[C@]12C=CC(=O)C=C1CC[C@@H]1C2=CC[C@]2(C)[C@@H](C(=O)CN3CCN(c4cc(N5CCCC5)nc(N5CCCC5)n4)CC3)CC[C@@H]12.O=C(O)/C=C\C(=O)O [U-74389G]
// result < 1 µM

====

# System: chloroquine-sensitive strain 3D7 of P. falciparum
# Assay Explanation: P. falciparum growth inhibition in culture, strain 3D7
# Format: cell-based, Plasmodium falciparum
# Assay Conditions: Plasmodium falciparum, 3D7; Table 3 section A; mean of at least two measurements; read-out: ED50 in 3D7
Endpoint Label: EC50

// query Please give the measured EC50 for this compound: O=C(O)c1cc(/N=N/c2ccc(S(=O)(=O)Nc3ccccn3)cc2)ccc1O
// result > 40 µM

// query Please give the measured EC50 for this compound: C[n+]1ccc(-c2c3nc(c(-c4cc[n+](C)cc4)c4ccc([nH]4)c(-c4cc[n+](C)cc4)c4nc(c(-c5cc[n+](C)cc5)c5ccc2[nH]5)C=C4)C=C3)cc1
// result 1 µM

// query Please give the measured EC50 for this compound: Oc1ccc(Cc2nc3c(Cc4ccccc4)nc(-c4ccc(O)cc4)cn3c2O)cc1
// result 10 to 40 µM

// query Please give the measured EC50 for this compound: COc1cccc2c1C(=O)c1c(O)c3c(c(O)c1C2=O)C[C@@](O)(C(C)=O)C[C@@H]3O[C@H]1C[C@H](N)[C@H](O)[C@H](C)O1
// result 0.13 µM

// query Please give the measured EC50 for this compound: C=CC1=C(C)c2cc3[nH]c(cc4nc(cc5[nH]c(cc1n2)c(C)c5CCC(=O)O)C(CCC(=O)O)=C4C)c(C)c3C=C
// result 10 to 40 µM

// query Please give the measured EC50 for this compound: O=C(O)CCC(=O)Nc1ccc(S(=O)(=O)Nc2nccs2)cc1
// result > 40 µM
